Reported %Inh is given for each of the following molecules.
Tested on: MAP4K3
Settings: concentration: 1 μM, replicates: in singlicate; n = 1;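 further: KINOMEscan kinase panel screen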
readout type: %Inh (%)

[
  {
    "molecule": "Cl.Fc1ccccc1COc1ccc(Nc2ncnc3ccc(-c4nnc(C(F)(F)F)o4)cc23)cc1Cl",
    "study target": "MAP4K3",
    "experimental result": 0
  },
  {
    "molecule": "FC(F)(F)c1ccc(-c2cc(-c3c[nH]nc3-c3ccccn3)ccn2)cc1",
    "study target": "MAP4K3",
    "experimental result": 0
  },
  {
    "molecule": "Fc1cccc(COc2ccc(Nc3ncnc4sc(-c5ccc[nH]5)cc34)cc2Cl)c1",
    "study target": "MAP4K3",
    "experimental result": 4
  },
  {
    "molecule": "COC(=O)c1cccc(NC(=O)NCCNc2ccnc(Nc3ccc(F)cc3)n2)c1",
    "study target": "MAP4K3",
    "experimental result": 0
  },
  {
    "molecule": "CCc1nc(-c2cccc(N(C)S(=O)(=O)c3ccccc3)c2)c(-c2ccnc(Nc3ccc(N4CCN(C(C)=O)CC4)nc3)n2)s1",
    "study target": "MAP4K3",
    "experimental result": 0
  },
  {
    "molecule": "C[C@@H]1CCN(C(=O)CO)C[C@@H]1N(C)c1ncnc2[nH]ccc12",
    "study target": "MAP4K3",
    "experimental result": 0
  },
  {
    "molecule": "CSc1ccc(NC2=C(c3ccccc3Cl)C(=O)NC2=O)cc1",
    "study target": "MAP4K3",
    "experimental result": 10
  },
  {
    "molecule": "Clc1ccc(-c2cc(-c3c[nH]nc3-c3ccccn3)ccn2)cc1",
    "study target": "MAP4K3",
    "experimental result": 0
  },
  {
    "molecule": "COc1ccc(Nc2nccc(N3CCC(NC(=O)c4cccc(NC(C)=O)c4)C3)n2)cc1 (stereo not drawn)",
    "study target": "MAP4K3",
    "experimental result": 0
  },
  {
    "molecule": "NC(=O)c1sc(-n2cnc3ccccc32)cc1OCc1ccccc1F",
    "study target": "MAP4K3",
    "experimental result": 0
  },
  {
    "molecule": "O=C(Nc1ccccc1F)NC1CCN(c2ccnc(Nc3ccc(F)cc3)n2)C1 (stereo not drawn)",
    "study target": "MAP4K3",
    "experimental result": 0
  },
  {
    "molecule": "CS(=O)(=O)CCNCc1ccc(-c2ccc3ncnc(Nc4ccc(OCc5ccccc5)c(Cl)c4)c3c2)o1.Cl",
    "study target": "MAP4K3",
    "experimental result": 1
  },
  {
    "molecule": "CCC(CC)(CC)n1cnc2c(N)ncnc21",
    "study target": "MAP4K3",
    "experimental result": 0
  },
  {
    "molecule": "O=C(Nc1ccccc1)Nc1ccc(Oc2ccc3nccn3n2)cc1",
    "study target": "MAP4K3",
    "experimental result": 0
  },
  {
    "molecule": "CN1CCC(n2cnc(-c3ccc(F)cc3)c2-c2ccnc(NC3CCNCC3)n2)CC1",
    "study target": "MAP4K3",
    "experimental result": 0
  },
  {
    "molecule": "CC(C)(C)OC(=O)NC1CCCN(c2cc(-c3ccc4c(N)n[nH]c4c3)nc(N)n2)C1 (stereo not drawn)",
    "study target": "MAP4K3",
    "experimental result": 3
  },
  {
    "molecule": "Oc1ccc2ncnc(Nc3ccc(OCc4ccccc4)cc3)c2c1",
    "study target": "MAP4K3",
    "experimental result": 11
  },
  {
    "molecule": "Cc1cccc(-c2nc(Nc3ccc4[nH]nnc4c3)c3ccccc3n2)n1",
    "study target": "MAP4K3",
    "experimental result": 0
  }
]

====

System: ABL2
Details: concentration: 1 μM, replicates: in singlicate; n = 1

[
  {
    "compound": "Nc1nccc2scc(-c3ccc4c(c3)CCN4C(=O)Cc3cc(F)ccc3F)c12 [GSK2587663]",
    "%Inh [%]": 18
  },
  {
    "compound": "Cl.Cn1ccc(-c2cccc(Nc3ccnc4cc(-c5nccs5)ccc34)c2)n1 [GW525701]",
    "%Inh [%]": 10
  },
  {
    "compound": "CSc1ccc(NC2=C(c3ccccc3Cl)C(=O)NC2=O)cc1 [SB-342411]",
    "%Inh [%]": 3
  },
  {
    "compound": "Cl.c1ccc(Cn2ncc3cc(Nc4ncnc5ccccc45)ccc32)cc1 [GW273749]",
    "%Inh [%]": 0
  },
  {
    "compound": "CC(=O)Nc1n[nH]c2ncc(-c3ccccc3)cc12 [SB-548492]",
    "%Inh [%]": 11
  }
]

====

// reported %Inh for each item listed
Test system: MYLK
Settings: concentration: 1 μM, replicates: in singlicate; n = 1

[
  {
    "structure as smiles": "COc1cc2c(Nc3cccc(NC(=O)c4ccccc4)c3)ncnc2cc1OCCCN1CCOCC1",
    "%Inh / %": 2
  },
  {
    "structure as smiles": "c1ccc(-c2ccc3c(-c4ccnc(Nc5ccc6c(c5)OCCO6)n4)cnn3n2)cc1",
    "%Inh / %": 11
  },
  {
    "structure as smiles": "O=C(Nc1ccccc1)Nc1ccc(Oc2ccc3nccn3n2)cc1",
    "%Inh / %": 11
  },
  {
    "structure as smiles": "CNc1nccc(-c2c(-c3ccc(F)cc3)ncn2CCCN2CCOCC2)n1",
    "%Inh / %": 0
  },
  {
    "structure as smiles": "O=C(c1ccc(-c2cc(-c3c[nH]nc3-c3ccccn3)ccn2)cc1)N1CCCC1",
    "%Inh / %": 31
  },
  {
    "structure as smiles": "O=C(CCO)NCCn1ccc2ncnc(Nc3ccc(Oc4cccc(C(F)(F)F)c4)c(Cl)c3)c21",
    "%Inh / %": 0
  },
  {
    "structure as smiles": "Cc1ccc(NC(=O)c2cccc(C#N)c2)cc1-c1ccc(C(=O)Nc2ccncc2)cc1",
    "%Inh / %": 14
  },
  {
    "structure as smiles": "Cl.O=S(=O)(c1cccc(F)c1)c1ccc(Nc2ncnc3cc(Br)sc23)cc1Cl",
    "%Inh / %": 3
  },
  {
    "structure as smiles": "CC(C)N1CCC(n2cnc(-c3ccc(F)cc3)c2-c2ccnc(N)n2)CC1",
    "%Inh / %": 19
  },
  {
    "structure as smiles": "Cc1cccc(-c2nc(Nc3ccc4[nH]nnc4c3)c3ccccc3n2)n1",
    "%Inh / %": 0
  },
  {
    "structure as smiles": "Nc1n[nH]c2nnc(-c3ccccc3)cc12",
    "%Inh / %": 19
  },
  {
    "structure as smiles": "Cl.c1ccc(Cn2ccc3cc(Nc4ncnc5ccccc45)ccc32)cc1",
    "%Inh / %": 21
  },
  {
    "structure as smiles": "CCn1c(-c2ccncc2)nc2cnccc21",
    "%Inh / %": 24
  },
  {
    "structure as smiles": "COC(=O)c1c(-c2ccccc2)c2cc(Cl)ccc2c(=O)n1Cc1ccc(S(C)(=O)=O)cc1",
    "%Inh / %": 34
  },
  {
    "structure as smiles": "Cl.c1ccc(Cn2ncc3cc(Nc4ncnc5ccccc45)ccc32)cc1",
    "%Inh / %": 8
  },
  {
    "structure as smiles": "CN1c2ccc(-c3ccc(C(=O)NCCO)cc3)cc2-c2[nH]ncc2S1(=O)=O",
    "%Inh / %": 87
  },
  {
    "structure as smiles": "CC(=O)Nc1n[nH]c2ncc(-c3ccccc3)cc12",
    "%Inh / %": 23
  },
  {
    "structure as smiles": "CN1CCC(n2cnc(-c3ccc(F)cc3)c2-c2ccnc(NC3CCNCC3)n2)CC1",
    "%Inh / %": 5
  },
  {
    "structure as smiles": "Fc1ccc(-c2ncn(CCCNCc3ccccc3)c2-c2ccncc2)cc1",
    "%Inh / %": 13
  },
  {
    "structure as smiles": "Fc1cccc(COc2ccc(Nc3ncnc4cc[nH]c34)cc2Cl)c1",
    "%Inh / %": 10
  }
]

====

The entries below are paired with their reported %Inh.
Test system: MAP3K2
Conditions: concentration: 1 μM, replicates: in singlicate; n = 1

[
  {
    "structure as smiles": "Clc1cccc(-c2nc(Nc3ccncc3)c3ccccc3n2)c1",
    "%Inh (%)": 0
  },
  {
    "structure as smiles": "COc1ccc(NC(=O)c2ccc(-c3cc(-c4nnc(C)o4)ccc3C)cc2)cc1",
    "%Inh (%)": 1
  },
  {
    "structure as smiles": "Cl.Cl.c1ccc(-c2cc3ccncc3cc2OC2CCNCC2)cc1",
    "%Inh (%)": 13
  },
  {
    "structure as smiles": "N#Cc1ccc(Oc2ccc(Nc3ncnc4cc[nH]c34)cc2Cl)cc1",
    "%Inh (%)": 9
  },
  {
    "structure as smiles": "O=C(CCO)NCCn1ccc2ncnc(Nc3ccc(Oc4cccc(C(F)(F)F)c4)c(Cl)c3)c21",
    "%Inh (%)": 0
  }
]
